- methodSummary: Single dose oral pharmacokinetic study of rubraxanthone in mice
- Assay type: in vivo
- experimentalConditions: mouse, plasma, 700 mg/kg
testReadout: CL/F
Answers without a unit are incomplete; give the number and then its unit.

Note to self: CL/F recorded for COc1c(O)cc2oc3cc(O)cc(O)c3c(=O)c2c1C/C=C(\C)CCC=C(C)C was 18.7 mL/min/kg

====

- methodSummary: Single dose oral pharmacokinetic study of rubraxanthone in mice
- Assay type: in vivo
- experimentalConditions: mouse, plasma, 700 mg/kg
testReadout: half-life (h)
Your answer is read as h, so omit the unit and give the number.

Note to self: half-life recorded for COc1c(O)cc2oc3cc(O)cc(O)c3c(=O)c2c1C/C=C(\C)CCC=C(C)C [rubraxanthone] was 6.72

====

- methodSummary: Single dose oral pharmacokinetic study of rubraxanthone in mice
- Format: in vivo
- experimentalConditions: mouse, plasma, 700 mg/kg
testReadout: k el (s⁻¹)
Your answer is read as s⁻¹, so omit the unit and give the number.

Note to self: k el recorded for COc1c(O)cc2oc3cc(O)cc(O)c3c(=O)c2c1C/C=C(\C)CCC=C(C)C [rubraxanthone] was 2.78e-05
